Examples of sequences with documented self-splicing fitness (ln) follow.
experiment: self-splicing fitness, log relative to wild type (ln ratio); higher = more splicing; Tetrahymena group I intron in knt gene, E. coli kanamycin selection, DiMSum; sequences stand for … in CUCUCU…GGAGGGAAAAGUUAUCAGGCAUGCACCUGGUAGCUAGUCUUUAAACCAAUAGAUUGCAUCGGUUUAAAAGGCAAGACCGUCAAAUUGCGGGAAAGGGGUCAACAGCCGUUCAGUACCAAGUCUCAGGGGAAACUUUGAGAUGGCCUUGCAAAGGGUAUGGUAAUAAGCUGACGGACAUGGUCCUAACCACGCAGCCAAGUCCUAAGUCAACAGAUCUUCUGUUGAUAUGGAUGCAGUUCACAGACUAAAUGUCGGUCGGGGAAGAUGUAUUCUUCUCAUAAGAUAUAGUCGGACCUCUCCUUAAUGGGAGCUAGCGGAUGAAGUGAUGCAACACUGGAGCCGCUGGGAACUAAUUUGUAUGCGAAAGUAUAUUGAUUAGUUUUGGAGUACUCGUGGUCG; settings: 30 °C;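 also: selection with 25 µg/mL kanamycin versus none on LB agar overnight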
quantity_kind: self-splicing fitness (ln)

{"seq": "GGACAGCAAUAUUACGGUCG", "quantity_kind": "self-splicing fitness (ln)", "endpoint_result": -1.1}
{"seq": "CCUAAGCAAUAUUACGGGCA", "quantity_kind": "self-splicing fitness (ln)", "endpoint_result": -3.62}
{"seq": "AACCAGCAAUAUUACGGAAG", "quantity_kind": "self-splicing fitness (ln)", "endpoint_result": -1.22}
{"seq": "UAGAAGCAAUAUUACGCUUC", "quantity_kind": "self-splicing fitness (ln)", "endpoint_result": -2.27}
{"seq": "GAUCAGCAAUAUUACGUGGU", "quantity_kind": "self-splicing fitness (ln)", "endpoint_result": -4.81}
{"seq": "AUUUAGCAAUAUUACGUGAG", "quantity_kind": "self-splicing fitness (ln)", "endpoint_result": -1.6}
{"seq": "GACGAGCAAUAUUACGCUAG", "quantity_kind": "self-splicing fitness (ln)", "endpoint_result": -3.19}
{"seq": "CCAAAGCAAUAUUACGACGU", "quantity_kind": "self-splicing fitness (ln)", "endpoint_result": -3.76}
{"seq": "GAGAAGCAAUAUUACGACGU", "quantity_kind": "self-splicing fitness (ln)", "endpoint_result": -0.944}
{"seq": "AGAGAGCAAUAUUACGAUCA", "quantity_kind": "self-splicing fitness (ln)", "endpoint_result": -1.93}
{"seq": "UGCAAGCAAUAUUACGUCUC", "quantity_kind": "self-splicing fitness (ln)", "endpoint_result": -1.76}
{"seq": "CAGCAGCAAUAUUACGACCU", "quantity_kind": "self-splicing fitness (ln)", "endpoint_result": -2.57}
{"seq": "AGCAAGCAAUAUUACGCUCU", "quantity_kind": "self-splicing fitness (ln)", "endpoint_result": -3}
{"seq": "AGCUAGCAAUAUUACGCCUU", "quantity_kind": "self-splicing fitness (ln)", "endpoint_result": -1.7}
{"seq": "GACGAGCAAUAUUACGGCAG", "quantity_kind": "self-splicing fitness (ln)", "endpoint_result": -2.04}
{"seq": "GCCAAGCAAUAUUACGGGGG", "quantity_kind": "self-splicing fitness (ln)", "endpoint_result": -4.11}
{"seq": "CAGGAGCAAUAUUACGGGGG", "quantity_kind": "self-splicing fitness (ln)", "endpoint_result": -2.9}
{"seq": "GGAUAGCAAUAUUACGCCCU", "quantity_kind": "self-splicing fitness (ln)", "endpoint_result": -2.08}
{"seq": "UCCGAGCAAUAUUACGACUA", "quantity_kind": "self-splicing fitness (ln)", "endpoint_result": -2.51}
{"seq": "GAUGAGCAAUAUUACGUAUU", "quantity_kind": "self-splicing fitness (ln)", "endpoint_result": -3.83}
{"seq": "GUUCAGCAAUAUUACGAGCU", "quantity_kind": "self-splicing fitness (ln)", "endpoint_result": -3.34}
{"seq": "CACGAGCAAUAUUACGCAUG", "quantity_kind": "self-splicing fitness (ln)", "endpoint_result": -3.6}
{"seq": "CGGUAGCAAUAUUACGUGAA", "quantity_kind": "self-splicing fitness (ln)", "endpoint_result": -2.67}
{"seq": "ACAGAGCAAUAUUACGUAUC", "quantity_kind": "self-splicing fitness (ln)", "endpoint_result": -4.32}
{"seq": "AGGCAGCAAUAUUACGGCAU", "quantity_kind": "self-splicing fitness (ln)", "endpoint_result": -0.346}
{"seq": "UAUUAGCAAUAUUACGAGAC", "quantity_kind": "self-splicing fitness (ln)", "endpoint_result": -2.57}
{"seq": "CUCGAGCAAUAUUACGACGG", "quantity_kind": "self-splicing fitness (ln)", "endpoint_result": -1.94}
{"seq": "CUACAGCAAUAUUACGAUUU", "quantity_kind": "self-splicing fitness (ln)", "endpoint_result": -4.36}
{"seq": "UCCAAGCAAUAUUACGCCGG", "quantity_kind": "self-splicing fitness (ln)", "endpoint_result": -1.53}
{"seq": "CGGAAGCAAUAUUACGGGUC", "quantity_kind": "self-splicing fitness (ln)", "endpoint_result": -3.78}
{"seq": "CGACAGCAAUAUUACGGAUU", "quantity_kind": "self-splicing fitness (ln)", "endpoint_result": -3.77}
{"seq": "CGCAAGCAAUAUUACGCUCU", "quantity_kind": "self-splicing fitness (ln)", "endpoint_result": -1.26}
{"seq": "AGGGAGCAAUAUUACGAGUU", "quantity_kind": "self-splicing fitness (ln)", "endpoint_result": -4.48}
{"seq": "GAGAAGCAAUAUUACGAAAG", "quantity_kind": "self-splicing fitness (ln)", "endpoint_result": -4.36}
{"seq": "CCCGAGCAAUAUUACGCAAG", "quantity_kind": "self-splicing fitness (ln)", "endpoint_result": -2.73}
{"seq": "AUGUAGCAAUAUUACGUGUG", "quantity_kind": "self-splicing fitness (ln)", "endpoint_result": -3.33}
{"seq": "ACAAAGCAAUAUUACGGCUU", "quantity_kind": "self-splicing fitness (ln)", "endpoint_result": -0.982}
{"seq": "GCUCAGCAAUAUUACGCAGC", "quantity_kind": "self-splicing fitness (ln)", "endpoint_result": -2.98}
{"seq": "AACAAGCAAUAUUACGCGAU", "quantity_kind": "self-splicing fitness (ln)", "endpoint_result": -3.61}
{"seq": "CCAGAGCAAUAUUACGGCAC", "quantity_kind": "self-splicing fitness (ln)", "endpoint_result": -3.21}
{"seq": "GGCGAGCAAUAUUACGUGCU", "quantity_kind": "self-splicing fitness (ln)", "endpoint_result": -3.19}
{"seq": "AACAAGCAAUAUUACGAAGC", "quantity_kind": "self-splicing fitness (ln)", "endpoint_result": -3.15}
{"seq": "CGUGAGCAAUAUUACGCAAU", "quantity_kind": "self-splicing fitness (ln)", "endpoint_result": -2.52}
{"seq": "CUUGAGCAAUAUUACGCUCG", "quantity_kind": "self-splicing fitness (ln)", "endpoint_result": -1.7}
{"seq": "ACUGAGCAAUAUUACGCACC", "quantity_kind": "self-splicing fitness (ln)", "endpoint_result": -2}
{"seq": "GCUGAGCAAUAUUACGGCUG", "quantity_kind": "self-splicing fitness (ln)", "endpoint_result": -1.57}
{"seq": "CACAAGCAAUAUUACGUGAG", "quantity_kind": "self-splicing fitness (ln)", "endpoint_result": -4.48}
{"seq": "GGCUAGCAAUAUUACGAGUU", "quantity_kind": "self-splicing fitness (ln)", "endpoint_result": -1.95}
{"seq": "GUUAAGCAAUAUUACGUUAG", "quantity_kind": "self-splicing fitness (ln)", "endpoint_result": -2.47}
{"seq": "UCUUAGCAAUAUUACGCGCC", "quantity_kind": "self-splicing fitness (ln)", "endpoint_result": -3.51}
{"seq": "UCAAAGCAAUAUUACGUCAG", "quantity_kind": "self-splicing fitness (ln)", "endpoint_result": -1.75}
